Target: adenosine 1 receptor (Homo sapiens)
Sequence (P30542 1-326): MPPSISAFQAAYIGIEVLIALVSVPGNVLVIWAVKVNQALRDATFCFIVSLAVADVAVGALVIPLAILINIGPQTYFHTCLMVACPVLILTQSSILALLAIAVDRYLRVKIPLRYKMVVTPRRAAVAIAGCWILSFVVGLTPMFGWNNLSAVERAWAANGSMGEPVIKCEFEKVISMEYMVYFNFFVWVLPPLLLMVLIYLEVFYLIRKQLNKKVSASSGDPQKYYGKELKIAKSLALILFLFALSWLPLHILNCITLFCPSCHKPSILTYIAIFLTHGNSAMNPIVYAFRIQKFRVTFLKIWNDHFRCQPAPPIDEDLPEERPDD
Assay: Agonist activity against adenosine 1 receptor (CHO cells, forskolin-enhanced cAMP/SPAP reporter)
Format: cell-based
Details: CHO cells transfected with human receptor; forskolin-enhanced cAMP via SPAP; mean of all the versions tested
Overview of recorded A1 EC50 as a ratio of that of NECA for various compounds
Number only, please.

Recorded results for 3 compounds are shown here.
compound	A1 EC50 as a ratio of that of NECA
CCn1nnc(C2OC(n3cnc4c(NCc5cccc(I)c5)nc(NC5CCN(Cc6ccccc6)C5)nc43)C(O)C2O)n1.O=CO.O=CO (stereo not shown)	101.30
CCn1nnc([C@H]2O[C@@H](n3cnc4c(NCC(c5ccccc5)c5ccccc5)nc(NCCN5CCOCC5)nc43)[C@H](O)[C@@H]2O)n1.O=C(O)C(F)(F)F.O=C(O)C(F)(F)F.O=C(O)C(F)(F)F	44.11
CCn1nnc(C2OC(n3cnc4c(NCCC5CCCCC5)nc(NC5CCNC5)nc43)C(O)C2O)n1 (stereo not shown) [Example 72]	848.50

Recorded A1 EC50 as a ratio of that of NECA (compound CCn1nnc(C2OC(n3cnc4c(N)nc(NCCc5ccc(S(N)(=O)=O)cc5)nc43)C(O)C2O)n1 (stereo not shown) ): 247.6

Lab note: measured A1 EC50 as a ratio of that of NECA of CCn1nnc([C@H]2O[C@@H](n3cnc4c(N)nc(NCCNc5ccccn5)nc43)[C@H](O)[C@@H]2O)n1.O=C(O)C(F)(F)F was 1136.00

Measured A1 EC50 as a ratio of that of NECA, CCn1nnc(C2OC(n3cnc4c(NC5CCCC5)nc(NC5CCC(N)CC5)nc43)C(O)C2O)n1.O=CO.O=CO (stereo not shown) : 39.00

Measured A1 EC50 as a ratio of that of NECA, CCC(CC)Nc1nc(NCCN2CCCC2)nc2c1ncn2C1OC(c2nnn(C)n2)C(O)C1O.O=CO.O=CO (stereo not shown) : 245.90

* * *

biological target: adenosine 1 receptor (Homo sapiens, UniProt P30542); test: Agonist activity against adenosine 1 receptor (CHO cells, forskolin-enhanced cAMP/SPAP reporter); format: cell-based; settings: CHO cells transfected with human receptor; forskolin-enhanced cAMP via SPAP; mean of all the versions tested
# A1 EC50 as a ratio of that of NECA listing for each entry below
Give the figure by itself; no unit, no explanation.

Example entries begin here.
compound	A1 EC50 as a ratio of that of NECA
CCC(CC)Nc1nc(NCCc2cn(C)cn2)nc2c1ncn2[C@@H]1O[C@H](c2nnn(C(C)C)n2)[C@@H](O)[C@H]1O.O=CO [Example 59]	92.30
CCn1nnc([C@H]2O[C@@H](n3cnc4c(NCC(c5ccccc5)c5ccccc5)nc(N[C@H]5CC[C@H](N)CC5)nc43)[C@H](O)[C@@H]2O)n1 (relative stereo) [Example 1]	89.3
CCn1nnc(C2OC(n3cnc4c(NCC(c5ccccc5)c5ccccc5)nc(NCCNC(=N)N)nc43)C(O)C2O)n1 (stereo not drawn) [Example 82]	520.50
CCn1nnc([C@H]2O[C@@H](n3cnc4c(NCC(c5ccccc5)c5ccccc5)nc(NCCN5CCCC5)nc43)[C@H](O)[C@@H]2O)n1.O=C(O)C(F)(F)F.O=C(O)C(F)(F)F.O=C(O)C(F)(F)F [Example 43]	71.35

Item: CCn1nnc(C2OC(n3cnc4c(NC5CCCC5)nc(NCCc5cn(C)cn5)nc43)C(O)C2O)n1 (stereo not drawn) [Example 7] | System: adenosine 1 receptor (Homo sapiens, UniProt P30542) | A1 EC50 as a ratio of that of NECA: 26.2

Record CCn1nnc([C@H]2O[C@@H](n3cnc4c(N)nc(NC5CCCC5)nc43)[C@H](O)[C@@H]2O)n1.O=C(O)C(F)(F)F.O=C(O)C(F)(F)F [Example 12] ; system adenosine 1 receptor (Homo sapiens, UniProt P30542); A1 EC50 as a ratio of that of NECA = 31.2

Measured on adenosine 1 receptor (Homo sapiens, UniProt P30542), CCn1nnc([C@H]2O[C@@H](n3cnc4c(NCC(c5ccccc5)c5ccccc5)nc(NC5CCOCC5)nc43)[C@H](O)[C@@H]2O)n1.O=C(O)C(F)(F)F [Example 113] has a documented A1 EC50 as a ratio of that of NECA of 184.4

So the reported A1 EC50 as a ratio of that of NECA for Cn1nnc(C2OC(n3cnc4c(NCc5cccc(I)c5)nc(NCCN5CCCCC5)nc43)C(O)C2O)n1 (stereo not drawn) [Example 106] , on adenosine 1 receptor (Homo sapiens, UniProt P30542), turned out to be 100.30

The reported adenosine 1 receptor (Homo sapiens, UniProt P30542) A1 EC50 as a ratio of that of NECA of CC(C)n1nnc([C@H]2O[C@@H](n3cnc4c(NCCC(C)(C)C)nc(NCCc5cn(C)cn5)nc43)[C@H](O)[C@@H]2O)n1.O=CO [Example 56] is 570.90

Log: adenosine 1 receptor (Homo sapiens, UniProt P30542), compound Cn1cnc(CCNc2nc(NCC(c3ccccc3)c3ccccc3)c3ncn([C@@H]4O[C@H](c5nnn(C)n5)[C@@H](O)[C@H]4O)c3n2)c1.O=CO [Example 27] , A1 EC50 as a ratio of that of NECA = 449.7
